# assayed target: Histamine H2 receptor (Cavia porcellus)
# protocol text: Agonist activity at GsalphaS-fused guinea pig histamine H2 receptor expressed in Sf9 cells by steady-state GTPase assay relative to histamine
measure name: Emax (%)
Entry rule: numbers only, all in %.

Take a look at these entries with their results.
- molecule: "C[C@H](CC(=O)NC(=N)NCCCc1c[nH]cn1)C1CCCCC1"
  assayed target: "Histamine H2 receptor (Cavia porcellus)"
  Emax / %: 90
- molecule: "Cc1nc(N)sc1CCCNC(=N)NC(=O)CC(C)c1ccccc1 (racemic)"
  assayed target: "Histamine H2 receptor (Cavia porcellus)"
  Emax / %: 98
- molecule: "Cc1nc(N)sc1CCCNC(=N)NC(=O)C[C@@H](C)C1CCCCC1"
  assayed target: "Histamine H2 receptor (Cavia porcellus)"
  Emax / %: 80
- molecule: "C[C@@H](CC(=O)NC(=N)NCCCc1c[nH]cn1)c1ccccc1"
  assayed target: "Histamine H2 receptor (Cavia porcellus)"
  Emax / %: 119
- molecule: "Cc1nc(N)sc1CCCNC(=N)NC(=O)C[C@H](C)C1CCCCC1"
  assayed target: "Histamine H2 receptor (Cavia porcellus)"
  Emax / %: 90

Fill in the recorded Emax for this molecule, with Histamine H2 receptor (Cavia porcellus) as test system: C[C@@H](CC(=O)NC(=N)NCCCc1c[nH]cn1)C1CCCCC1
93

Thanks! And NCCc1c[nH]cn1 ?
100

Now consider Cc1nc(N)sc1CCCNC(=N)NC(=O)CC(C)C1CCCCC1 (racemic) .
82

Repeat with Cc1nc(N)sc1CCCNC(=N)NC(=O)C[C@H](C)c1ccccc1
99

Can you handle C[C@H](CC(=O)NC(=N)NCCCc1c[nH]cn1)c1ccccc1 next?
101

Same lookup for Cc1nc(N)sc1CCCNC(=N)NC(=O)C[C@@H](C)c1ccccc1 , please.
86

====

Items are presented alongside their recorded EC50.
# assayed target: Histamine H4 receptor (Homo sapiens)
# Sequence (Q9H3N8 whole entry, the tested form may be a part): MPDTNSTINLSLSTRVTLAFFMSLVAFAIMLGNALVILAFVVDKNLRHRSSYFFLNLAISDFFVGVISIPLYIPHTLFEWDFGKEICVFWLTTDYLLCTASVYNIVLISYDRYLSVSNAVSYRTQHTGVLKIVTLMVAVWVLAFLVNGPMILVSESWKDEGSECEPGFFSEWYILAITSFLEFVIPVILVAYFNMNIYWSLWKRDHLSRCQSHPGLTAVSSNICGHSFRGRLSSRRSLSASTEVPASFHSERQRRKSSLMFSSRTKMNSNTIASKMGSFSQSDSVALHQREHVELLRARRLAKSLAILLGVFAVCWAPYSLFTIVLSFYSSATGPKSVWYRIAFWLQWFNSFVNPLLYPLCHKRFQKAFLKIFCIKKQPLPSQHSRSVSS
# protocol text: Activity at human recombinant GAIP-fused histamine H4 receptor expressed in Sf9 cells coexpressing Galphai, Gbeta1gamma2 by steady-state GTPase activity assay
Kindly format the answer as number then unit.

The cases that follow already have their EC50 on record.
- mol smiles: "C[C@@H](CC(=O)NC(N)=NCCCc1cnc[nH]1)c1ccccc1"
  EC50: "2.63 nM"
- mol smiles: "C[C@H](CC(=O)NC(N)=NCCCc1cnc[nH]1)c1ccccc1"
  EC50: "22.9 nM"

Please report the recorded EC50 for C[C@H](CC(=O)NC(N)=NCCCc1cnc[nH]1)C1CCCCC1 .
8.32 nM

Entry to check: C[C@@H](CC(=O)NC(N)=NCCCc1cnc[nH]1)C1CCCCC1
4.57 nM

====

# assayed target: Histamine H2 receptor (Cavia porcellus, UniProt P47747)
# Sequence (P47747 whole entry, the tested form may be a part): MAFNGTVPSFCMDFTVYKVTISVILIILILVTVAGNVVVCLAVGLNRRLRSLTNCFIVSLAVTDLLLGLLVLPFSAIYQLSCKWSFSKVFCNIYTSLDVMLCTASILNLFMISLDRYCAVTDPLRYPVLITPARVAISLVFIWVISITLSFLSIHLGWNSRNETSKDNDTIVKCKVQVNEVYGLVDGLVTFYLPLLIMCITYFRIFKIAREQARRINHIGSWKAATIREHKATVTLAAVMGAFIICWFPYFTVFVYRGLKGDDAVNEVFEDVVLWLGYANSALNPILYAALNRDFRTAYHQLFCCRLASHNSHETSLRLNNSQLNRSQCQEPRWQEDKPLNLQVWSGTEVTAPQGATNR
# protocol text: Agonist activity at histamine H2 receptor in spontaneously beating guinea pig atrium
# Type: functional, tissue-based, Cardiac atrium
A collection of compounds and their measured pEC50
Answer as the number alone; pEC50 is minus log10 of concentration in mol/L.

Record excerpt, results attached:
- compound: "C[C@H](CC(=O)NC(N)=NCCCc1cnc[nH]1)c1ccccc1"
  pEC50: 7.03
- compound: "Cc1nc(N)sc1CCCNC(=N)NC(=O)CC(C)c1ccccc1 (racemic)"
  pEC50: 7.31
- compound: "Cc1nc(N)sc1CCCNC(=N)NC(=O)CC(C)C1CCCCC1 (racemic)"
  pEC50: 7.16

Which measured pEC50 belongs to C[C@H](CC(=O)NC(N)=NCCCc1cnc[nH]1)C1CCCCC1 , tested on Histamine H2 receptor (Cavia porcellus, UniProt P47747)?
6.99

Also Cc1nc(N)sc1CCCN=C(N)NC(=O)C[C@@H](C)C1CCCCC1 , if possible.
7.24

Cc1nc(N)sc1CCCNC(=N)NC(=O)C[C@H](C)c1ccccc1 , same question.
7.40

Continue with Cc1nc(N)sc1CCCN=C(N)NC(=O)C[C@@H](C)c1ccccc1
6.99

Proceed to C[C@@H](CC(=O)NC(N)=NCCCc1cnc[nH]1)C1CCCCC1
7.48

Follow-up entry: Cc1nc(N)sc1CCCN=C(N)NC(=O)C[C@H](C)C1CCCCC1
7.04

C[C@@H](CC(=O)NC(N)=NCCCc1cnc[nH]1)c1ccccc1 , same question.
7.60

====

# assayed target: Histamine H2 receptor (Cavia porcellus)
# protocol text: Agonist activity at GsalphaS-fused guinea pig histamine H2 receptor expressed in Sf9 cells by steady-state GTPase assay
Measured pEC50 of individual entries
Lab note: report pEC50 as minus log10 of the concentration in molar units, number only.

Look over these answered cases.
- molecule: "Cc1nc(N)sc1CCCNC(=N)NC(=O)C[C@H](C)c1ccccc1"
  result: 8.11
- molecule: "Cc1nc(N)sc1CCCN=C(N)NC(=O)C[C@H](C)C1CCCCC1"
  result: 7.85
- molecule: "Cc1nc(N)sc1CCCN=C(N)NC(=O)C[C@@H](C)C1CCCCC1"
  result: 7.88
- molecule: "Cc1nc(N)sc1CCCN=C(N)NC(=O)C[C@@H](C)c1ccccc1"
  result: 7.77
- molecule: "Cc1nc(N)sc1CCCNC(=N)NC(=O)CC(C)c1ccccc1 (racemic)"
  result: 7.65

Okay, now this molecule:
# lookup: pEC50 of C[C@H](CC(=O)NC(N)=NCCCc1cnc[nH]1)c1ccccc1
7.12

====

# Lookup of reported Emax keyed by entry
# assayed target: Histamine H2 receptor (Homo sapiens, UniProt P25021)
# Sequence (P25021 whole entry, the tested form may be a part): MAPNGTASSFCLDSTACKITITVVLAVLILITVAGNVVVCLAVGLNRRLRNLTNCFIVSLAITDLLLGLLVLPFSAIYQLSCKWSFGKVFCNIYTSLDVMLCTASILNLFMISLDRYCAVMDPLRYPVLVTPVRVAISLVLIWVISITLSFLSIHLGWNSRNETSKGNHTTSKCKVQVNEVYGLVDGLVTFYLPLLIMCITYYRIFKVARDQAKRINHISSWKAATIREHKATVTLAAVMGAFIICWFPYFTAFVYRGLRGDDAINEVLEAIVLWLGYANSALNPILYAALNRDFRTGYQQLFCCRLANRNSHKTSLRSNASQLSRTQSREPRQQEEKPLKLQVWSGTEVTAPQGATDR
# protocol text: Agonist activity at GsalphaS-fused human histamine H2 receptor expressed in Sf9 cells by steady-state GTPase assay relative to histamine
# value in %; strip the unit string

- compound: "Cc1nc(N)sc1CCCNC(=N)NC(=O)CC(C)C1CCCCC1 (racemic)"
  Emax (%): 56
- compound: "Cc1nc(N)sc1CCCNC(=N)NC(=O)C[C@@H](C)c1ccccc1"
  Emax (%): 65
- compound: "C[C@@H](CC(=O)NC(=N)NCCCc1c[nH]cn1)c1ccccc1"
  Emax (%): 107
- compound: "NCCc1c[nH]cn1"
  Emax (%): 100

Please give the measured Emax for this compound: C[C@H](CC(=O)NC(=N)NCCCc1c[nH]cn1)C1CCCCC1
85

Cc1nc(N)sc1CCCNC(=N)NC(=O)CC(C)c1ccccc1 (racemic) , same question.
82

Now consider C[C@H](CC(=O)NC(=N)NCCCc1c[nH]cn1)c1ccccc1 .
101

// next record Cc1nc(N)sc1CCCNC(=N)NC(=O)C[C@H](C)c1ccccc1
87

Same again, this time with Cc1nc(N)sc1CCCNC(=N)NC(=O)C[C@@H](C)C1CCCCC1
62

Another compound to check: C[C@@H](CC(=O)NC(=N)NCCCc1c[nH]cn1)C1CCCCC1
99

Then what about the compound Cc1nc(N)sc1CCCNC(=N)NC(=O)C[C@H](C)C1CCCCC1 ?
71

====

# assayed target: UniProt Q9H3N8
# protocol text: Activity at human recombinant GAIP-fused histamine H4 receptor expressed in Sf9 cells coexpressing Galphai, Gbeta1gamma2 by steady-state GTPase activity assay relative to histamine
Short version: Emax at least 80% is rule met, less is rule not met.

# count of solved cases: 3
- mol smiles: "NCCc1c[nH]cn1"
  class: "rule met"
- mol smiles: "C[C@H](CC(=O)NC(=N)NCCCc1c[nH]cn1)c1ccccc1"
  class: "rule met"
- mol smiles: "C[C@H](CC(=O)NC(=N)NCCCc1c[nH]cn1)C1CCCCC1"
  class: "rule not met"

Kindly consider the entry below.
In plain terms: is recorded Emax at least 80% for C[C@@H](CC(=O)NC(=N)NCCCc1c[nH]cn1)C1CCCCC1 ?
rule not met

====

# assayed target: Histamine H2 receptor (Homo sapiens, UniProt P25021)
# protocol text: Agonist activity at GsalphaS-fused human histamine H2 receptor expressed in Sf9 cells by steady-state GTPase assay
measure name: EC50 (µM)
Unit µM implied. Number only.

Here's what some known entries look like.
- molecule: "Cc1nc(N)sc1CCCNC(=N)NC(=O)CC(C)C1CCCCC1 (racemic)"
  measure name: "EC50"
  result: 0.00933
- molecule: "Cc1nc(N)sc1CCCNC(=N)NC(=O)CC(C)c1ccccc1 (racemic)"
  measure name: "EC50"
  result: 0.0501
- molecule: "C[C@@H](CC(=O)NC(N)=NCCCc1cnc[nH]1)C1CCCCC1"
  measure name: "EC50"
  result: 0.00646
- molecule: "Cc1nc(N)sc1CCCNC(=N)NC(=O)C[C@H](C)c1ccccc1"
  measure name: "EC50"
  result: 0.0282
- molecule: "Cc1nc(N)sc1CCCN=C(N)NC(=O)C[C@H](C)C1CCCCC1"
  measure name: "EC50"
  result: 0.0288
- molecule: "C[C@H](CC(=O)NC(N)=NCCCc1cnc[nH]1)c1ccccc1"
  measure name: "EC50"
  result: 0.12
- molecule: "C[C@H](CC(=O)NC(N)=NCCCc1cnc[nH]1)C1CCCCC1"
  measure name: "EC50"
  result: 0.0186
- molecule: "C[C@@H](CC(=O)NC(N)=NCCCc1cnc[nH]1)c1ccccc1"
  measure name: "EC50"
  result: 0.0794

Requested read-out: EC50. Entry: Cc1nc(N)sc1CCCN=C(N)NC(=O)C[C@@H](C)c1ccccc1
0.0537

// query: Cc1nc(N)sc1CCCN=C(N)NC(=O)C[C@@H](C)C1CCCCC1
0.0204
